Measured Target: human EGFR (Homo sapiens, UniProt P00533)
Construct: human EGFR in human epidermoid carcinoma cell line A431; endogenous in cells; host or cells: A431
Experiment Description: EGFR autophosphorylation ELISA in A431 cells
Format: cell-based
Assay Context: Example 12; read-out: calculated IC50 of EGFR autophosphorylation inhibition
Measurement Label: pIC50
The scale used: pIC50 is minus the common logarithm of the concentration in molar units.

Recorded result, CHPGDKQEDPNCLQADK [E13.3] , pIC50: 5.70

Origin of the recorded values: patent US20240002547A1
